// reported pKi for each item listed
target: Pseudomonas aeruginosa phosphorylcholine phosphatase (PchP) (Pseudomonas aeruginosa); construct: His-tag fusion produced in E. coli BL21 CodonPlus; purified with EDTA to remove residual metal; assay: biochemical
Sequence (Q9HTR2 23-349): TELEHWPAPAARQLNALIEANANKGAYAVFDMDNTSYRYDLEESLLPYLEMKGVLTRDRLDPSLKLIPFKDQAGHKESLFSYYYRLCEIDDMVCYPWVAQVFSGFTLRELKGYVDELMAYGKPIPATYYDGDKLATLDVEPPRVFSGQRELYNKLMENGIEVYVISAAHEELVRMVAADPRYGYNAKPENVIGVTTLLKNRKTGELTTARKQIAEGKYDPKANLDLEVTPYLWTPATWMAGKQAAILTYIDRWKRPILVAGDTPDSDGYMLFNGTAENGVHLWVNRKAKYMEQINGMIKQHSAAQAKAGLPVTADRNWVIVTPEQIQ
pKi: −log10 of the molar value.

- line.notation: "CN(C)C"
  pKi: 4.22
- line.notation: "CN(C)C(=O)Oc1cccc([N+](C)(C)C)c1"
  pKi: 3.24
- line.notation: "N[C@H](CO)Cc1c[nH]cn1"
  pKi: 3.51
- line.notation: "C[N+](C)(C)C"
  pKi: 4.46
- line.notation: "CC(C)(N)CO"
  pKi: 3.68
- line.notation: "C[N+](C)(C)CCCl"
  pKi: 3.92
- line.notation: "C[N+](C)(C)CC(=O)[O-]"
  pKi: 2.84
- line.notation: "C[N+](C)(C)CCO"
  pKi: 4.00
- line.notation: "COc1cc2c3cc1Oc1cc(ccc1O)C[C@@H]1c4c(cc(OC)c(O)c4Oc4ccc(cc4)C[C@@H]3N(C)CC2)CC[N+]1(C)C"
  pKi: 2.60
- line.notation: "C[N+](C)(C)CCCCCC[N+](C)(C)C"
  pKi: 4.10
- line.notation: "C[N+](C)(C)CCCCCCCCCC[N+](C)(C)C"
  pKi: 4.10

Reference source for all entries: paper PMC3102446
